Data credit: patent US20110152313A1

Biological target: YSK4 (Homo sapiens, UniProt Q56UN5)
Sequence (Q56UN5 1-1328): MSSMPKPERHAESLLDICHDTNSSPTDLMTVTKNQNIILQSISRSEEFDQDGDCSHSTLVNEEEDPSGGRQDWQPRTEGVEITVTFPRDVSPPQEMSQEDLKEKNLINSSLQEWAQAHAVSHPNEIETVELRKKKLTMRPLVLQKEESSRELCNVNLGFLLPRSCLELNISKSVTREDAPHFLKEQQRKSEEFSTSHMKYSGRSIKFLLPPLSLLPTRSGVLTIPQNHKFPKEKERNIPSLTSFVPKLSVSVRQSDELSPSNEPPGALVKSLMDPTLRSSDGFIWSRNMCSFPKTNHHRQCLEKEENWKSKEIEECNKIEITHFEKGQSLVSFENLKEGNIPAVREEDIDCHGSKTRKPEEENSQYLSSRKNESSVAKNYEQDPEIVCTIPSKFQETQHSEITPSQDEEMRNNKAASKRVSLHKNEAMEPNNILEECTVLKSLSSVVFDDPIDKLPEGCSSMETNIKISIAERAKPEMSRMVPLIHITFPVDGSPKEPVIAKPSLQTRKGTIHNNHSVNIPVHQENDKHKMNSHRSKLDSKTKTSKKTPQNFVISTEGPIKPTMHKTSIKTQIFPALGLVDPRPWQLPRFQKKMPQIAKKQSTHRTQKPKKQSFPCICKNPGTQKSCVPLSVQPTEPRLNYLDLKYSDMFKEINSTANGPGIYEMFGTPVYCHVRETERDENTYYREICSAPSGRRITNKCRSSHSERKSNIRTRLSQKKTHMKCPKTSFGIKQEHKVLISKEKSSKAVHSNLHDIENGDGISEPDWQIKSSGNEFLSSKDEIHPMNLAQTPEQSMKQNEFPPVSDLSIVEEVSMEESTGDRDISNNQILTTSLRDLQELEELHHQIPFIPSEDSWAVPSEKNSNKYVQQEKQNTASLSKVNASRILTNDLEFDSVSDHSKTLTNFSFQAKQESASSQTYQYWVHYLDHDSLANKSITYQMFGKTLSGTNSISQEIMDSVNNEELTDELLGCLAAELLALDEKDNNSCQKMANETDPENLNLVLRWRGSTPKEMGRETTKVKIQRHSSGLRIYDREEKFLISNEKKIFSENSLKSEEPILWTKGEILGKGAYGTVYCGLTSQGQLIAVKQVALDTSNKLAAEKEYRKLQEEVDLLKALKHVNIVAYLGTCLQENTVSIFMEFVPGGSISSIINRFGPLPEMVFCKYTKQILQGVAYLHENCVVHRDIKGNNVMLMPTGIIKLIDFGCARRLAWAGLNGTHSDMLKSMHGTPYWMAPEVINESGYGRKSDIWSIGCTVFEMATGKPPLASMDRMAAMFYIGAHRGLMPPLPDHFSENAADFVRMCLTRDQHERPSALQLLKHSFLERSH
readout: Kd
Hi, when you answer, please include the unit after the number. Thanks!

Query block: Please give the measured Kd for this molecule: Nc1nc2c(-c3ccccn3)nccc2[nH]1 [drawing 35]
Result block: 220 nM
